Substrate: CCCCCCCCCCCCCCCCOC[C@@H](O)COP(=O)([O-])OCC[N+](C)(C)C
Assay: released choline by choline oxidase/peroxidase colorimetric assay, Michaelis-Menten fit
Type: biochemical, Thermocrispum sp. RD004668
Conditions: pH 8.0, 50 °C, 1 min, 2 mM CaCl2, substrate micelles
OBSERVED PROPERTY: kcat/Km

INSERT INTO measurements (protein, val) VALUES
  ('LyPls-PLD (lysoplasmalogen-specific phospholipase D) (Thermocrispum sp. RD004668; F211L) (protein, recombinant from pET24/lpls-pld in E. coli BL21(DE3); purified on HisTrap HP) TTRTTDNPWLDARVLNMAHAGGENEAPANTLYAFKRAVKLGANMLELDVQSTKDDQLVVIHNATVDQTTDGTGKVRDLTFEQVHELDAAYNFIPGRHAVPGEPPESYPLRGVRTGEKKPPPGYQPSDFAIPKLADVLEAFPRTPINIEIKGTSDADIPSFLHNAKLLARLLKKTGRTDFIVTSLNDLAVAKFHLLAPDIPIAPGMAGLAAYFLLGVKPMHGTVALQIPVRYQGLEIATPEFIRRAHADGYAVHVWFSGTAPDDEATYNRIIDSCADGLMPAYPALLERILDERGIERPGRPGVDPCG', '6.97e+06 M⁻¹ s⁻¹');
